pIC50 data for PIK3CA (human) (UniProt P42336) follow.
pIC50: −log10 of the molar value.

Previously resolved entries follow.
N[C@H]1CCN(C(=O)c2ccc(NC(=O)Nc3ccc(-c4nc(N5CCOCC5)c5ccc(-c6cncnc6)cc5n4)cc3F)cc2)C1 | > 7.30
CN(C)C(=O)c1ccc(NC(=O)Nc2ccc(-c3nc(N4CCOCC4)c4cc(F)c(-c5cncnc5)cc4n3)c(F)c2)cc1 | 6.70 to 7.30
CC(O)c1ccc(-c2ccc3c(N4CCOCC4)nc(-c4ccc(NC(=O)Nc5ccc(C(=O)N(C)C)cc5)cc4)nc3c2)o1 (configuration not stated) | > 7.30
CN(C)C(=O)c1ccc(NC(=O)Nc2ccc(-c3nc(N4CCOCC4)c4ccc(-c5cncnc5)cc4n3)cn2)c(F)c1 | > 7.30
CN(C)C(=O)c1ccc(NC(=O)Nc2ccc(-c3nc(N4CCOCC4)c4ccc(-c5cnn(C)c5)cc4n3)cc2F)cc1 | > 7.30

Exercise: With PIK3CA (human) (UniProt P42336) as the test system, provide measured pIC50 for this compound: Cc1ncccc1-c1ccc2c(N3CCOCC3)nc(-c3ccc(NC(=O)Nc4ccc(C(=O)N(C)C)cc4)cc3F)nc2c1
Sequence (P42336 whole entry, looked up): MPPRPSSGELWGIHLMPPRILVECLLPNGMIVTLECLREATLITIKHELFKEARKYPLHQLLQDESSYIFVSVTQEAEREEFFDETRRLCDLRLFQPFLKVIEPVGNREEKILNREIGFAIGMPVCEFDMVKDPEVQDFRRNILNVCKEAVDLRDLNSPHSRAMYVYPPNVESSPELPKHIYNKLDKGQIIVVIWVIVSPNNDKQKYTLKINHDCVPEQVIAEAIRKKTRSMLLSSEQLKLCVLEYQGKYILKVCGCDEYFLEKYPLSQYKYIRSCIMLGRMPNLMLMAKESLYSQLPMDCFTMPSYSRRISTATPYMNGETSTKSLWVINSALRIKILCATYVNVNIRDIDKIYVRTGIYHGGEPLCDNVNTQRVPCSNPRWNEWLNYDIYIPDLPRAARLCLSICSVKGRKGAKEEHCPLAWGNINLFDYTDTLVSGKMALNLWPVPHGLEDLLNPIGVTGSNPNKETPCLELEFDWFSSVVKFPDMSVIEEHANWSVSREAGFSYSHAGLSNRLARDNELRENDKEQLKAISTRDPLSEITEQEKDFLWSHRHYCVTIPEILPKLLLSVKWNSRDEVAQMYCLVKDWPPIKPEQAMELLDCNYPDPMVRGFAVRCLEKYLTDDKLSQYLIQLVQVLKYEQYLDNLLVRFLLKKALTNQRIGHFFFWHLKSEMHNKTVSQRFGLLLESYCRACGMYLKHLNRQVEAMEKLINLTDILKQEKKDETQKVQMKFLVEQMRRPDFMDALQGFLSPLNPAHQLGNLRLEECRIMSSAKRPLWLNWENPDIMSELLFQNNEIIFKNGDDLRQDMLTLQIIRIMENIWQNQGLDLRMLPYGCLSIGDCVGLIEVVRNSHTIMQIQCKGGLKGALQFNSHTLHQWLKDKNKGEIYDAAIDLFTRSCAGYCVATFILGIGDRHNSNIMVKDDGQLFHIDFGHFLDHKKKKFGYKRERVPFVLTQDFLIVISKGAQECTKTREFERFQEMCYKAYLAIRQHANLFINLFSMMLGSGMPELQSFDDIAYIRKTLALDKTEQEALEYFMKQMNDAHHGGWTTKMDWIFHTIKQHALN
Solution: > 7.30

Exercise: Under PIK3CA (human) (UniProt P42336), report pIC50 for CN(C)C(=O)c1ccc(NC(=O)Nc2ccc(-c3nc(N4CCOCC4)c4cccc(-c5ccc(F)nc5)c4n3)cc2)cc1
Solution: 6.70 to 7.30
